tested on: UACC-62 melanoma; assay: NCI tumour cell line growth inhibition, 48 h
Reported values of TGI for individual entries

Example compounds with recorded TGI:
[
  {
    "COMPOUND": "COC(=O)C(=CNC(N)=O)C(=O)OC",
    "TGI": "> 100 µM"
  },
  {
    "COMPOUND": "Cc1cn(C2C=CC(CO)O2)c(=O)[nH]c1=O (stereo unspecified)",
    "TGI": "> 1000 µM"
  },
  {
    "COMPOUND": "COC(=O)/C(=N/Nc1cccc(Cl)c1)C(C(=O)C(=O)Nc1cccc(Cl)c1C)c1nc2ccccc2nc1C (stereo unspecified)",
    "TGI": "> 100 µM"
  }
]

Now consider a different compound.
Value (TGI, UACC-62 melanoma) for record Cc1ccc(C(=O)N(Cc2ccccc2)Cc2ccccc2)cc1N=NN(C)C = > 31.6 µM

---

test system: OVCAR-8 ovarian; test: NCI tumour cell line growth inhibition, 48 h
This listing pairs compounds with measured TGI.

# TGI of C=CCc1cc(-c2cc(CC=C)c(O)c(CN(CC)CC)c2)cc(CN(CC)CC)c1O = > 100 µM

# TGI (compound: CCCCCCCCCCCCCCCCNCCCN(C)CCCN ) is 38.5 µM

Kindly note the recorded TGI for Oc1ccc(O)c(-c2cc(-c3ccc(Cl)cc3)nn2-c2ccccc2)c1 , which is > 100 µM

---

system: 786-0 renal; test: NCI tumour cell line growth inhibition, 48 h
READOUT_TYPE: GI50

[
  {
    "COMPOUND": "COc1ccc(S(=O)(=O)NC2=NCCN2C(=S)SN2CCn3c2nsc3=S)cc1",
    "GI50": "20.2 µM"
  },
  {
    "COMPOUND": "CCN(Cc1ccc(F)cc1)c1ccc(CO)c(C)c1",
    "GI50": "13 µM"
  },
  {
    "COMPOUND": "CCCCCCNC(=O)Oc1ccc(/C(=C(/C)Cc2ccc(OC)cc2)c2ccc(OCCCN(C)C)cc2)cc1",
    "GI50": "13.1 µM"
  },
  {
    "COMPOUND": "N#Cc1c(Br)n(C2OC(CO)C(O)C2O)c2ncnc(N)c12 (configuration not stated)",
    "GI50": "6.45 µM"
  },
  {
    "COMPOUND": "O=C(CN1CCN(c2cc3c(cc2F)c(=O)c(C(=O)O)cn3C2CC2)CC1)Nc1nc(-c2ccc(Cl)cc2)cs1",
    "GI50": "4.24 µM"
  },
  {
    "COMPOUND": "Oc1ccc(O)c(-c2cc(-c3ccc(Cl)cc3)nn2-c2ccccc2)c1",
    "GI50": "2.21 µM"
  }
]

Documented GI50 of N[C@@H]1C(=O)N2C(C(=O)OC(c3ccccc3)c3ccccc3)=C(CCl)CS[C@H]12 : 39.3 µM

Looking up COc1ccc(C(c2ccc(OCCN(C)C)cc2)c2cc3ccccc3c3ccccc23)cc1 (configuration not stated) , I found its GI50 recorded as 1.51 µM

Sample O=[N+]([O-])c1ccc(Oc2nc(Nc3ccc(O[C@H]4CO[C@H]5[C@@H]4OC[C@@H]5O)c(Cl)c3)ncc2F)c(Cl)c1 ; GI50 observed: 1.3 µM

// sample CCOc1cc(Br)c(C(C)NC(=O)c2cccc(OC)c2)cc1OCC (configuration not stated) , its GI50 was 20.4 µM

Nc1nc(N)c(C=Nc2ccc(Br)cc2)c(Nc2ccc(Br)cc2)n1 has a reported GI50 of 11.1 µM

Record summary for COc1cccc(/C=N/NC(=S)NC2CC3CCC2C3)c1O (configuration not stated) : reported GI50 = 19.5 µM

The reported measurements were obtained from PubChem BioAssay (NCI).
